tested on: ZAK; conditions: concentration: 1 μM, replicates: in singlicate; n = 1;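 also: KINOMEscan kinase panel screen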
readout_type: %Inh (%)
Entry rule: numbers only, all in %.

Task: Input CC(=O)Nc1ccc(COc2ccc(Nc3ccnc4cc(-c5ccccn5)ccc34)cc2)cc1.Cl , output reported %Inh.
Output: 73

Task: Input NS(=O)(=O)CCc1cccc(Nc2nccc(-c3c(-c4cccc(NC(=O)c5c(F)cccc5F)c4)nn4ccccc34)n2)c1 , output reported %Inh.
Output: 98.4

Task: Input N#Cc1ccc(-c2cc(-c3c[nH]nc3-c3ccccn3)ccn2)cc1 , output reported %Inh.
Output: 15

***
Task: Input COc1ccc(S(=O)(=O)NC2CCN(c3cc(C)nc(Nc4cccc(C#N)c4)n3)CC2)cc1.O=C(O)C(F)(F)F , output reported %Inh.
Output: 0

###

Catalogue of %Inh values
test system: PIP5K1A; details: concentration: 1 μM, replicates: in singlicate; n = 1
Entry rule: numbers only, all in %.

Completed entries (count: 5):
Task: Input Cc1c2ccc(N(C)c3ccnc(Nc4cccc(S(N)(=O)=O)c4)n3)cc2nn1Cc1ccccc1.Cl.Cl , output reported %Inh.
Output: 0

Task: Input CN(C1=C(c2ccccc2)C(=O)NC1=O)c1ccccc1 , output reported %Inh.
Output: 8

Task: Input N#Cc1ccc(-c2cc(-c3c[nH]nc3-c3ccccn3)ccn2)cc1 , output reported %Inh.
Output: 7

Task: Input Cc1cccc(Cn2ccn3c(=O)cc(N4CCOCC4)nc23)c1 , output reported %Inh.
Output: 0

Task: Input COc1cc2ncn(-c3cc(OCc4sccc4Cl)c(C(N)=O)s3)c2cc1OC , output reported %Inh.
Output: 41

***
Task: Input Cl.Oc1cccc(Nc2ccnc3cc(-c4ccncc4)ccc23)c1 , output reported %Inh.
Output: 35

Task: Input CCn1cnc2c(N)ncnc21 , output reported %Inh.
Output: 0

Task: Input c1ccc(-c2n[nH]cc2-c2ccnc3ccccc23)nc1 , output reported %Inh.
Output: 0

Task: Input COc1ccc(S(=O)(=O)NC2CCN(c3cc(C)nc(Nc4cccc(C#N)c4)n3)CC2)cc1.O=C(O)C(F)(F)F , output reported %Inh.
Output: 0

Task: Input CN(C(=O)c1ccc(-c2cc(-c3c[nH]nc3-c3ccccn3)ccn2)cc1)C1CCOCC1 , output reported %Inh.
Output: 0

Task: Input Cc1cccc(-c2nc(Nc3ccc4ncsc4c3)c3ccccc3n2)n1 , output reported %Inh.
Output: 27

Task: Input COc1ccc(Nc2nccc(N3CCC(NC(=O)Nc4cccc(C(C)=O)c4)C3)n2)cc1 (stereo not drawn) , output reported %Inh.
Output: 0

Task: Input CNc1ncnc2[nH]ncc12 , output reported %Inh.
Output: 22

Task: Input CC(=O)Nc1ccc(COc2ccc(Nc3ccnc4cc(-c5ccccn5)ccc34)cc2)cc1.Cl , output reported %Inh.
Output: 0

Task: Input O=C(NOCC1CC1)c1ccc(F)c(F)c1Nc1ccc(I)cc1Cl , output reported %Inh.
Output: 0

Task: Input O=C(Nc1cccc(-c2nn3ncccc3c2-c2ccnc(Nc3cccc(C(F)(F)F)c3)n2)c1)c1c(F)cccc1F , output reported %Inh.
Output: 18

Task: Input CCCCCc1nc2c(N)ncnc2n1CCCCC , output reported %Inh.
Output: 1

###

system: ACVR2B; conditions: concentration: 1 μM, replicates: in singlicate; n = 1
readout_type: %Inh

Task: Fill: %Inh (ACVR2B) for this molecule Cc1cn2c(=O)cc(N3CCOCC3)nc2n1Cc1cccc(Cl)c1Cl
Output: 23%

Task: Fill: %Inh (ACVR2B) for this molecule O=C(NOCC1CC1)c1ccc(F)c(F)c1Nc1ccc(I)cc1Cl
Output: 0%

Task: Fill: %Inh (ACVR2B) for this molecule Nc1nccc(-c2c(-c3ccc(F)cc3)ncn2C2CCN(CC(F)(F)F)CC2)n1
Output: 0%

Task: Fill: %Inh (ACVR2B) for this molecule O=C1Cc2cc(Nc3nc(NCc4cccc(S(=O)(=O)C(F)(F)F)c4)ncc3C(F)(F)F)ccc2N1
Output: 0%

Task: Fill: %Inh (ACVR2B) for this molecule COc1ccc(COc2cc(-n3cnc4ccccc43)sc2C(N)=O)cc1
Output: 0%

***
Task: Fill: %Inh (ACVR2B) for this molecule NS(=O)(=O)CCc1cccc(Nc2nccc(-c3c(-c4cccc(NC(=O)c5c(F)cccc5F)c4)nn4ccccc34)n2)c1
Output: 37%

Task: Fill: %Inh (ACVR2B) for this molecule COC(=O)Nc1nc2cc(Oc3ccc(NC(=O)Nc4cc(F)ccc4F)cc3)ccc2[nH]1.Cl
Output: 0%

###

tested on: JNK3; construct: gene MAPK10; conditions: concentration: 1 μM, replicates: in singlicate; n = 1
readout_type: %Inh

Task: Fill: %Inh (JNK3) for this compound O=C1NC(=O)C(N2CCc3ccccc32)=C1c1cccc(Cl)c1 [SB-408010]
Output: 29%

Task: Fill: %Inh (JNK3) for this compound Cc1nnc(-c2ccc3ncc(-c4ccc(S(C)=O)cc4)n3c2)o1 (stereo not drawn)
Output: 24%

Task: Fill: %Inh (JNK3) for this compound CCn1cnc2c(N)ncnc21 [GW345098]
Output: 0%

Task: Fill: %Inh (JNK3) for this compound CCCCCc1nc2c(N)ncnc2n1CCCCC [SKF-97255]
Output: 0%

Task: Fill: %Inh (JNK3) for this compound O=c1cc(N2CCOCC2)nc2n(Cc3cccc4ccccc34)ccn12 [GSK2333389]
Output: 0%

***
Task: Fill: %Inh (JNK3) for this compound O=C(c1ccc(-c2cc(-c3c[nH]nc3-c3ccccn3)ccn2)cc1)N1CCOCC1 [GW812171]
Output: 2%

###

tested on: CLK3; conditions: concentration: 1 μM, replicates: in singlicate; n = 1
readout_type: %Inh
Put your answer as a value accompanied by its unit after it.

Task: Input O=C1Cc2cc(Nc3nc(NCc4cccc(S(=O)(=O)C(F)(F)F)c4)ncc3C(F)(F)F)ccc2N1 , output reported %Inh.
Output: 0%

Task: Input Cc1nnc(-c2ccc(C)c(-c3ccc(C(=O)Nc4ccc(NS(C)(=O)=O)cc4)cc3)c2)o1 , output reported %Inh.
Output: 2%

***
Task: Input COc1cc2ncn(-c3cc(OCc4sccc4Cl)c(C(N)=O)s3)c2cc1OC , output reported %Inh.
Output: 2%

Task: Input Fc1ccc(-c2ncn(CCCN3CCOCC3)c2-c2cccnc2)cc1 , output reported %Inh.
Output: 11%

Task: Input CCc1nc(-c2cccc(C)c2)c(-c2ccnc(NCc3ccccc3)c2)s1 , output reported %Inh.
Output: 0%

Task: Input COc1ccc(Nc2nccc(N3CCC(NC(=O)Nc4cc(C)ccc4C)C3)n2)cc1 (stereo not shown) , output reported %Inh.
Output: 0%

Task: Input CC(=O)Nc1ccc(COc2ccc(Nc3ccnc4cc(-c5ccccn5)ccc34)cc2)cc1.Cl , output reported %Inh.
Output: 0%

Task: Input Cc1nnc(-c2ccc3ncc(-c4ccc(S(C)=O)cc4)n3c2)o1 (stereo not shown) , output reported %Inh.
Output: 0%

Task: Input COc1cc(Nc2nccc(N3CCC(NC(=O)c4cccc(NC(C)=O)c4)C3)n2)cc(OC)c1OC (stereo not shown) , output reported %Inh.
Output: 0%

Task: Input O=C1NC(=O)C(N2CCc3ccccc32)=C1c1cccc(Cl)c1 , output reported %Inh.
Output: 0%

Task: Input CN1c2ccc(CNc3ccc(F)cc3)cc2-c2c(cnn2C)S1(=O)=O , output reported %Inh.
Output: 0%

###

test system: BRSK2; settings: concentration: 1 μM, replicates: in singlicate; n = 1
readout_type: %Inh (%)
Entry rule: numbers only, all in %.

Completed entries (count: 8):
Task: Input O=C(c1ccc(-c2cc(-c3c[nH]nc3-c3ccccn3)ccn2)cc1)N1CCOCC1 [GW812171] , output reported %Inh.
Output: 10

Task: Input CCc1ccnc(/C=C/c2n[nH]c3cc(Sc4ccccc4C(=O)NC)ccc23)c1 , output reported %Inh.
Output: 17

Task: Input COc1ccc(COc2cc(-n3cnc4ccccc43)sc2C(N)=O)cc1 [GSK1024304] , output reported %Inh.
Output: 5

Task: Input Fc1ccc(-c2ncn(CCCN3CCOCC3)c2-c2ccccn2)cc1 [SB-211742] , output reported %Inh.
Output: 14

Task: Input O=C(NCCNc1ccnc(Nc2ccc(F)cc2)n1)c1cc2ccccc2s1 [GSK1379874] , output reported %Inh.
Output: 0

Task: Input Cl.Oc1cccc(Nc2ccnc3cc(-c4ccncc4)ccc23)c1 [GW494601] , output reported %Inh.
Output: 4

Task: Input O=c1cc(N2CCOCC2)nc2n(Cc3cccc(F)c3)ccn12 [GSK2297430] , output reported %Inh.
Output: 0

Task: Input COc1cc2c(cc1OCCN1CCN(C)CC1)ncc1c3ccc(C#N)cc3[nH]c21 , output reported %Inh.
Output: 0

Now for another entry.
Task: Input C[C@@H](Oc1cc(-n2cnc3ccc(NC(=O)NC(C)(C)C)cc32)sc1C(N)=O)c1ccccc1Cl [GSK346294] , output reported %Inh.
Output: 15
